# Assay Name: Solvent mixture solubility tests of (Z)-endoxifen
# Format: physicochemical
# Conditions Used: water/2-propanol 50/50 v/v, aqueous with cosolvent or surfactant or cyclodextrin, thermodynamic from solid, water/2-propanol 50/50 v/v; 100 mg/mL; high temperature; read-out: Solubility HT (100 mg/mL): Sol. HT
Test Readout: solubility

Briefly, solubility measured for CC/C(=C(\c1ccc(O)cc1)c1ccc(OCCNC)cc1)c1ccccc1 [(Z)-endoxifen] : < 100 mg/mL

----------
# Assay Name: Stability of (Z)-Endoxifen in acetone (HPLC peak table over time)
# Assay type: physicochemical
# Conditions Used: acetone, 40° C., 4 hr
Test Readout: HPLC peak RT 20.80, RRT 1.28 (%)
State just the number; it will be interpreted in %.

Briefly, HPLC peak RT 20.80, RRT 1.28 measured for CC/C(=C(\c1ccc(O)cc1)c1ccc(OCCNC)cc1)c1ccccc1 [(Z)-endoxifen] : 0.15
